Recorded IC50 by entry
# target-desc: G1 APOL1 (Homo sapiens, UniProt O14791, I384M/S342G)
# Construct: expressed in transfected cells
# Sequence (O14791 28-398 S342G/I384M): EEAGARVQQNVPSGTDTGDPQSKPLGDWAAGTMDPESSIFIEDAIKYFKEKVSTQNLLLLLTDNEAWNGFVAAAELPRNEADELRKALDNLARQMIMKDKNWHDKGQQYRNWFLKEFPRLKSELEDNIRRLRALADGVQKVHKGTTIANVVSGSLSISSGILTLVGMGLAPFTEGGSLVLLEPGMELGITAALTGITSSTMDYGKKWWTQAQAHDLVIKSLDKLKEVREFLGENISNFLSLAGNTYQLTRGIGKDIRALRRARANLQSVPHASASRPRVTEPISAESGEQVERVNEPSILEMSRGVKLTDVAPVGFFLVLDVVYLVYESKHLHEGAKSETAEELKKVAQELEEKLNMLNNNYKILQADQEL
# assay-explanation: Acute APOL1 Thallium Assay with inducible stable clones of HEK 293 cells
# Type: cell-based
# test-parameters: HEK 293 T-Rex cells expressing G1 APOL1; read-out: Thallium Assay (IC50)

Examples with answers:
compound | measurement-label | reported-measurement
O=C([C@H]1C[C@H](c2c(-c3ccc(F)cc3)[nH]c3c(F)cc(F)cc32)C1)N1CCN[C@H](CO)C1 [Compound 161] | IC50 | > 1000 nM
O=C(NCC(O)CO)[C@H]1C[C@@H](c2c(-c3ccc(F)cc3)[nH]c3c(F)cc(F)cc32)C1 (some centres unmarked) [Compound 244] | IC50 | > 1000 nM
CC1(C)CN(C(=O)[C@H]2C[C@H](c3c(-c4ccc(F)cc4)[nH]c4c(F)cc(F)cc43)C2)CCN1C(=O)[C@H]1C[C@@](C)(O)C1 [Compound 130] | IC50 | > 1000 nM
O=C(NC(CO)(CO)CO)[C@H]1C[C@H](c2c(-c3ccc(F)cc3)[nH]c3c(F)cc(F)cc32)C1 [Compound 226] | IC50 | < 250 nM
O=C1CCC(NC(=O)[C@H]2C[C@@H](c3c(-c4ccc(F)cc4)[nH]c4c(F)cc(F)cc43)C2)C(=O)N1 (some centres unmarked) [Compound 252] | IC50 | > 1000 nM

Briefly, IC50 measured for Cc1cc(NC(=O)[C@H]2C[C@H](c3c(-c4ccc(F)cc4)[nH]c4c(F)cc(F)cc43)C2)no1 [Compound 17] : 250 to 1000 nM

Briefly, IC50 measured for O=C([C@H]1C[C@H](c2c(-c3ccc(F)cc3)[nH]c3c(F)cc(F)cc32)C1)N1CCOC(CO)C1 (some centres unmarked) [Compound 152] : > 1000 nM

Briefly, IC50 measured for NCC(O)CNC(=O)[C@H]1C[C@H](c2c(-c3ccc(F)cc3)[nH]c3c(F)cc(F)cc32)C1 (some centres unmarked) [Compound 3] : 250 to 1000 nM

Briefly, IC50 measured for O=C(CNC(=O)[C@H]1C[C@H](c2c(-c3ccc(F)cc3)[nH]c3c(F)cc(F)cc32)C1)NC[C@H](O)C(F)(F)F [Compound 234] : > 1000 nM

Briefly, IC50 measured for C[C@@H](O)[C@H](CO)NC(=O)[C@H]1C[C@H](c2c(-c3ccc(F)cc3)[nH]c3c(F)cc(F)cc32)C1 [Compound 155] : > 1000 nM

Briefly, IC50 measured for O=C(NCC1(O)CCC1)[C@H]1C[C@H](c2c(-c3ccc(F)cc3)[nH]c3c(F)cc(F)cc32)C1 [Compound 143] : > 1000 nM

Hey, just so you know, these numbers are from patent US12116343B2.
